These measurements were taken from ChEMBL document CHEMBL3091347.

System: Mycobacterium tuberculosis
Assay: Antitubercular activity against Mycobacterium tuberculosis BCG
Type: functional
assay-metric: log(1/MIC)
Give bare numbers.

molecule	log(1/MIC)
COc1cc(C(=O)NN)ccc1O	-1.477
NNC(=O)c1ccc(Br)o1	-1.079
CC(=O)Nc1ccc(/C=N\NC(=O)c2ccncc2)cc1	1.097
NNC(=O)c1cccc(N)c1	-0.4771
NNC(=O)c1ccncc1N	-0.1761
NNC(=O)Cc1cc2ccccc2[nH]1	-1.778

For every item below, please supply its log(1/MIC).
1. NNC(=O)c1nc2ccccc2[nH]1
2. NNC(=O)c1cscn1

1. -1.176
2. -1.176

Please go through the list and note log(1/MIC) for each molecule.
1. NNC(=O)C1Cc2ccccc2O1 (stereo not given)
2. O=C(N/N=C(\CO)C(O)C(O)C(O)CO)c1ccncc1 (stereo not given)
3. N/N=C(\CC(=O)c1ccncc1)C(=O)c1ccncc1
4. O=C(NNC(=O)c1ccncc1)c1ccncc1
5. CC(C)CCOc1ccc(/C=N/NC(=O)c2ccncc2)cc1

-1.352
1.222
-1.176
-0.9031
1.301

====

Tested on: Mycobacterium tuberculosis
Assay: Antitubercular activity against Mycobacterium tuberculosis
Assay type: functional
We'd kindly ask you to apply these log(1/MIC) classes: low = under -2, intermediate = from -2 up to 0.8, high = 0.8 and over

Solved cases (8 shown):
compound	test-system	class
NNC(=O)c1ccnc2ccccc12	Mycobacterium tuberculosis	intermediate
C/C(=N\NC(=O)c1ccncc1)c1cccc(CN2CCN(C)CC2)c1O	Mycobacterium tuberculosis	intermediate
C/C(=N\NC(=O)c1ccncc1)c1cccc(CN2CCCCC2)c1O	Mycobacterium tuberculosis	intermediate
CN(C)C(=O)N1CCC(C(=O)NN)CC1	Mycobacterium tuberculosis	low
CON1C(=O)C(=O)N1c1ccc([N+](=O)[O-])cc1	Mycobacterium tuberculosis	high
CC(O)(NNC(=O)c1ccncc1)C(=O)O (configuration not stated)	Mycobacterium tuberculosis	high
CC(=O)NNC(=O)c1ccco1	Mycobacterium tuberculosis	low
O=C(NNC(O)C(Cl)(Cl)Cl)c1ccncc1 (configuration not stated)	Mycobacterium tuberculosis	high

Looking at `CC(=O)NNC(=O)c1ccncc1` , which class would you pick?
intermediate

Then this compound: `NNC(=O)c1ccnc(Cl)c1`
intermediate

====

Assay: Lipophilicity, log P of the compound
Details: octanol/water, logP
logP vs -2: less than gives Condition met; not less than gives Condition not met.

CC(C)=NNC(=O)c1ccncc1 Condition not met
O=C(NO)c1ccncc1 Condition met
NNC(=O)c1ccccc1N Condition met
NNC(=O)Cc1ccccc1 Condition not met
N/C(COc1ccc(Cl)cc1)=N\NC(=O)c1ccncc1 Condition not met
CCCCC/C(C)=N/NC(=O)c1ccncc1 Condition not met

Answer whether the compound `CCc1cc(C(=O)NN)ccn1` has logP strictly less than -2
Condition not met

Now consider `NNC(=O)Cc1ccsc1` .
Condition not met

Another compound to look at: `CN(C)C(=O)N1CCC(C(=O)NN)CC1`
Condition met

Further, for `CC(C)Cc1cc(C(=O)NN)ccn1` ?
Condition not met

What do you get for `CC(=O)NNC(=O)c1ccncc1` ?
Condition met

One more compound: `Cc1ccccc1OC/C(N)=N/NC(=O)c1ccncc1`
Condition not met

====

System: Mycobacterium tuberculosis
Assay: Antitubercular activity against Mycobacterium tuberculosis BCG
Format: functional
What MIC was measured for each of the following?

molecule	observed-result
CC(=O)NN	150 µg/mL
CC(C)/C=N/NC(=O)c1cccs1	1.2 µg/mL
CC(=O)Nc1ccc(/C=N\NC(=O)c2ccncc2)cc1	0.08 µg/mL
O=C(NNS(=O)(=O)c1ccccc1)c1ccncc1	3 µg/mL
CC(C)N(N)C(=O)c1ccco1	15 µg/mL
CC(C(=O)c1ccncc1)C(/C=N/N)C(=O)c1ccncc1 (centres undefined)	0.5 µg/mL
NNC(=O)c1cc2ccccc2o1	2 µg/mL
CC(=O)N1CCC(C(=O)NN)CC1	6 µg/mL

# batch: return MIC for each of the 6 molecules below
1. CCCCC/C(C)=N\NC(=O)c1cccs1
2. C/C=C/CCCCCCC/C=N/NC(=O)c1ccncc1
3. CC(C)COc1ccc(/C=N/NC(=O)c2ccncc2)cc1
4. NNC(=O)c1nccnc1C(=O)NN
5. O=C(N/N=C/C(O)C(O)C(O)CO)c1ccncc1 (centres undefined)
6. NNC(=O)c1ccc(I)cc1

3 µg/mL
0.15 µg/mL
0.2 µg/mL
15 µg/mL
0.05 µg/mL
6 µg/mL

====

Test system: Mycobacterium tuberculosis
Assay: Antitubercular activity against Mycobacterium tuberculosis BCG
Assay type: functional
assay-metric: MIC (µg/mL)
Answers are plain numbers, in µg/mL.

Here are 2 compounds together with their reported answers.
compound	observed-result
NNC(=O)CCC(=O)NN	25
O=CNNC(=O)c1ccncc1	3

Dear colleague, could you send me MIC for each of the items below? Thanks.
1. CCCCCC/C=N/NC(=O)c1cccs1
2. NNC(=O)Cc1ccncc1
3. CCCCCCCCCC/C=N/NC(=O)c1ccncc1
4. NNC(=O)C(O)(c1ccccc1)c1ccccc1
5. NNC(=O)c1ccc(Br)o1
6. O=C(N/N=C(\CO)C(O)C(O)C(O)CO)c1ccncc1 (stereo unspecified)
7. O=C(NN=C1CCCCC1)c1cccs1
8. CCC(CC)NNC(=O)c1ccncc1

[6, 100, 0.3, 100, 12, 0.06, 3, 3]

====

System: Mycobacterium tuberculosis
Experiment: Antitubercular activity against Mycobacterium tuberculosis BCG
Assay type: functional
assay-metric: MIC (mg/L)
Answers are plain numbers, in mg/L.

Recorded MIC, per entry:
compound	observed-result
O=C(NNC1CCCCC1)c1ccncc1	5
O=C(N/N=C/C(O)C(O)C(OC1OC(CO)C(O)C(O)C1O)C(O)CO)c1ccncc1 (centres undefined)	0.15

Please supply MIC for each of the following items, keeping them in order.
1. NNC(=O)C1CCC(C(=O)NN)CC1 (centres undefined)
2. NNC(=O)Cc1ccc(Cl)cc1
3. NNC(=O)c1ccc(N)cc1
4. NNC(=O)c1ccncc1N
5. NNC(=O)c1ccncn1
6. NNC(=O)C1CCNCC1
7. CNC1C(OC2C(OC3C(O)C(O)C(NC(=N)N)C(O)C3NC(=N)N)OC(C)C2(O)/C=N/NC(=O)c2cccs2)OC(CO)C(O)C1O (centres undefined)
8. NNC(=O)c1ccsc1

[300, 10, 6, 1.5, 20, 600, 0.25, 8]

For each of the compounds below, state MIC.
1. CC1CCC(=NNC(=O)c2ccncc2)CC1 (centres undefined)
2. NNC(=O)/C=C/c1ccccc1
3. NNC(=O)c1cncs1
4. Cc1ccc(C)n1NC(=O)c1ccco1

0.07
0.4
10
15

====

System: Mycobacterium tuberculosis
Experiment: Antitubercular activity against Mycobacterium tuberculosis
Assay type: functional
Hi there, I'd appreciate the recorded log(1/MIC) for every entry that follows.

molecule	observed-result
CC(=O)N(Nc1ccccc1)c1ccccc1	-2
CCC(C)NNC(=O)c1ccncc1 (stereo not drawn)	0.4
CCOc1cc(C(=O)NN)ccn1	-1.91
NNC(=O)c1ccnc([N+](=O)[O-])c1	-1.83
NNC(=O)c1ccnc(-c2ccccc2)c1	-1.03

For each of the molecules below, state log(1/MIC).
1. CCCCC/C(C)=N/NC(=O)c1ccncc1
2. C/C=N/NC(=O)c1ccncc1
3. O=C(NN=C1CCCCC1)c1ccncc1

[1.52, 1.4, 2.22]

====

Test: Lipophilicity, log P of the compound
Settings: octanol/water, logP
Assign y to entries whose logP meets or exceeds -1; assign n to the rest.

For orientation, consider the following solved cases.
compound	class
NNC(=O)C1Cc2ccccc2O1 (stereo not given)	n
CCCCC/C(C)=N\NC(=O)c1cccs1	y
NNC(=O)c1ccnc(Br)c1	n

# bool: logP of `NNC(=O)c1ccncn1` >= -1
n

And for `CC(C)N(N)C(=O)c1ccco1` ?
y

// repeat for `NNC(=O)c1ccc(Br)o1` and report
y

====

Tested on: Mycobacterium tuberculosis
Experiment: Antitubercular activity against Mycobacterium tuberculosis
Type: functional
Response key: satisfied means log(1/MIC) >= -0.9; not satisfied means log(1/MIC) < -0.9.

Example results:
compound	class
NNC(=O)c1c[nH]c(S)n1	not satisfied
CC(C)NNC(=O)c1ccncc1	satisfied
CC(C)CNNC(=O)c1ccncc1	satisfied

Exam item: decide whether the reported log(1/MIC) for O=C(N/N=C/C(O)C(O)C(O)C(O)CO)c1ccco1 (configuration not stated) is at least -0.9.
satisfied

# iterate: N/N=C/C(CC(=O)c1ccncc1)C(=O)c1ccncc1 (configuration not stated)
satisfied

Another: `CC(C)Cc1cc(C(=O)NN)ccn1`
not satisfied

====

Tested on: Mycobacterium tuberculosis
Assay: Antitubercular activity against Mycobacterium tuberculosis BCG
Format: functional
Consider the following compounds; for each one, report its log(1/MIC).
Numbers only.

compound	observed-result
CC(C)(C#N)NNC(=O)c1ccco1	-0.4771

// each compound listed below needs its log(1/MIC)
1. CC(=O)N1CCC(C(=O)NN)CC1
2. CC(C)=NNC(=O)c1ccco1
3. Cc1c(C(=O)NN)sc(C(=O)NN)c1C
4. NNC(=O)CCCCCCCCCCC(=O)NN
5. NNC(=O)Cc1ccncc1

[-0.7782, -0.6021, -1.477, -0.4771, -2]

# per-item lookup of log(1/MIC); items listed below
1. NNC(=O)c1nccnc1C(=O)NN
2. CCCCCC/C=N/NC(=O)c1ccncc1
3. Cc1ccc(C)n1NC(=O)c1cccs1
4. NNC(=O)c1cnc(N)s1
5. NNC(=O)C1CCC(C(=O)NN)CC1 (stereo not given)
6. CC(=O)Nc1ccc(/C=N\NC(=O)c2ccco2)cc1

1. -1.176
2. 1.523
3. -1.602
4. -0.7782
5. -2.477
6. -0.6532

# batch size: 3; output log(1/MIC) per entry
1. Cn1cncc1C(=O)NN
2. NNC(=O)c1ccccc1N
3. O=C(NNS(=O)(=O)c1ccccc1)c1ccncc1

1. -2.477
2. -1.477
3. -0.4771
